Ref: PubChem BioAssay (NCI)

System: HS 578T breast
Experiment: NCI tumour cell line growth inhibition, 48 h
If the reported TGI equals or exceeds 5 µM, assign class 1. If not, assign class 0.

>>> category("CC(C)(C)OC(=O)N1CC(Cn2cc(C(F)(F)F)c3c(Cl)ncnc32)C1")
"class 1"
>>> category("O=C1OCC2=C1C(c1cccc(C(F)(F)F)c1)c1cc3c(cc1N2CCO)OCO3 (stereo unspecified)")
"class 1"
>>> category("COc1cc([N+](=O)[O-])c(S(=O)(=O)O)cc1N")
"class 1"
>>> category("CCN1/C(=C/C=C/C=C/c2sc3ccccc3[n+]2CC)Sc2ccccc21")
"class 0"
>>> category("CC(C)(Cl)C(Br)CCC(CBr)=C(Cl)CCl (mixture of isomers)")
"class 1"
>>> category("Cc1c2cnccc2c(C)c2c1c1cc(C(=O)O)ccc1n2C")
"class 0"
>>> category("O=C(Nc1ccc(Cl)cc1F)c1cc(F)ccc1O")
"class 1"
>>> category("O=C1c2ccc3c4c(ccc(c24)C(=O)N1CCCNCc1ccccc1)C(=O)N(CCCNCc1ccccc1)C3=O")
"class 0"
>>> category("COc1cccc2c1nc1cccc(OC)c1[n+]2[O-]")
"class 1"
>>> category("CC(O)CCNC(=O)Nc1c(C(F)(F)F)cc(-c2ccccc2)[nH]c1=O (stereo unspecified)")
"class 1"
>>> category("CCNc1nc(N)c(C(=O)c2cccs2)s1")
"class 1"
>>> category("C[n+]1c2ccccc2c(C(=O)NC(CCCN=C(N)N)C(=O)O)c2ccccc21 (stereo unspecified)")
"class 1"
>>> category("COc1nc2c(cc1S(=O)(=O)c1ccccc1)CCc1c-2cnn1Cc1ccccc1")
"class 1"
>>> category("C=C1C(=O)CCC1C(=O)O (stereo unspecified)")
"class 1"
>>> category("CCN(CC)CCOc1ccc(N2Cc3ccccc3C2=O)cc1")
"class 1"
>>> category("COc1cc(C2=C(C)[C@@H]3CN(CC=C3c3ccc(Cl)cc3)C2)c(S(=O)(=O)O)cc1OC")
"class 1"
>>> category("CC(NC1=NCCO1)c1cccs1 (stereo unspecified)")
"class 1"
>>> category("CCN(CC)C(=S)SC(=S)N(CC)CC")
"class 1"
>>> category("C=C(C)[C@@H]1CC[C@]2(C(=O)Nc3ccccn3)CC[C@]3(C)[C@H](CC[C@@H]4[C@@]5(C)CCCNC(C)(C)[C@@H]5CC[C@]43C)[C@@H]12")
"class 0"
>>> category("COc1ccccc1-c1ccc2nc(NC(=O)Nc3cc(C(F)(F)F)cc(C(F)(F)F)c3)sc2c1")
"class 1"
>>> category("O=Nc1ccc(O)c2ncccc12")
"class 0"
